target: human TLR8 (Homo sapiens, UniProt Q9NR97)
protocol summary: TLR8 inhibition reporter assay (HEK-Blue cells, secreted embryonic alkaline phosphatase reporter)
protocol conditions: HEK-Blue cells overexpressing human TLR8, stimulated with R848 15.9 μM; read-out: TLR 8 IC50
reported property: IC50

>>> print(df.to_string())
                                   compound                                    target  reported_property  data_value
0  Cn1c(-c2ccc(S(C)(=O)=O)cc2)nc2ccc(C3CCN(C4CC5CCC(C4)N5C4CCC4)CC3)c(F)c21 (single isomer, unassigned) [Example 271]  human TLR8 (Homo sapiens, UniProt Q9NR97)               IC50     > 50 µM
1  COc1cc(-c2nc3c(C)cc(C4CCN(C5CC6CCC(C5)N6CC(C)C)CC4)cc3[nH]2)cn2ncnc12 (stereo not drawn)  human TLR8 (Homo sapiens, UniProt Q9NR97)               IC50     14.9 µM
2  CS(=O)(=O)c1ccc(-c2nc3ccc(C4CCN(C5CCN(CC6COC6)CC5)CC4)c(F)c3[nH]2)cc1  human TLR8 (Homo sapiens, UniProt Q9NR97)               IC50     > 50 µM

Could you tell me which IC50 is on file for CS(=O)(=O)c1ccc(-c2nc3c(F)cc(C4CCN(C5CC6CCC(C5)N6C5CCC5)CC4)cc3n2C2CC2)cc1 (single isomer, unassigned) [Example 326] ?
> 50 µM

Could you tell me which IC50 is on file for `CCN1CCCN(Cc2ccc(-c3cc(C)c4nc(-c5ccc(S(C)(=O)=O)cc5)n(C)c4c3)cc2F)CC1` ?
1.8 µM

Could you tell me which IC50 is on file for COCCN1C2CCC1CC(N1CCC(c3cc4c(cc3F)nc(-c3ccc(S(C)(=O)=O)cc3)n4C)CC1)C2 (single isomer, unassigned) [Example 238] ?
> 50 µM

====

Entries and their pIC50
target: human TLR9 (Homo sapiens, UniProt Q9NR96)
Construct: host or cells: HEK-Blue cells (HEK293-derived reporter line)
Sequence (Q9NR96 26-1032): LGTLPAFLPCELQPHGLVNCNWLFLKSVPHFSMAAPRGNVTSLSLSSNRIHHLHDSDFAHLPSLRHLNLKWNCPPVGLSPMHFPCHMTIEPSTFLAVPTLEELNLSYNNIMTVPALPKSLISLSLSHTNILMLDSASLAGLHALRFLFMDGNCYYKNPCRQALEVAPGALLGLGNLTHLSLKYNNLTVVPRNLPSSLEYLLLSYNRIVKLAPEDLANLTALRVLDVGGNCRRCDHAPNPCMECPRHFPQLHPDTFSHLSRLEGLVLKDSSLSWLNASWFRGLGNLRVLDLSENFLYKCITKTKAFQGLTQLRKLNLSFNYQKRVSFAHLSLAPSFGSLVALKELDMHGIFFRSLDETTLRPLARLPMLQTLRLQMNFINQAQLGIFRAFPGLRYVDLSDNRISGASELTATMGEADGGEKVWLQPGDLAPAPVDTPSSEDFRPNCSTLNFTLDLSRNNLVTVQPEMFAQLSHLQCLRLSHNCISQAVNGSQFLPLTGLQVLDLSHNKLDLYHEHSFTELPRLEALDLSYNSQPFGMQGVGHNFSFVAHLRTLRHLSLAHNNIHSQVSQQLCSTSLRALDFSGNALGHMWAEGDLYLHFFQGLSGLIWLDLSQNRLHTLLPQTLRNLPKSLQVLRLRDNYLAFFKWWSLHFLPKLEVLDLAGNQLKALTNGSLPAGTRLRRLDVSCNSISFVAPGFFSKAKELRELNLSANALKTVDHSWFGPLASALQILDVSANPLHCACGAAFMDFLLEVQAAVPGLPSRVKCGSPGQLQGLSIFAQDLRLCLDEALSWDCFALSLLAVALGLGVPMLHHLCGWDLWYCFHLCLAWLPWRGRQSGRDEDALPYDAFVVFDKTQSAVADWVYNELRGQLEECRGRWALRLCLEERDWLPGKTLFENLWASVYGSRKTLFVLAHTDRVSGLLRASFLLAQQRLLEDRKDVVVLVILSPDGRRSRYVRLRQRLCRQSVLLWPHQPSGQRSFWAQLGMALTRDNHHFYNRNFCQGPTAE
protocol summary: TLR9 inhibition reporter assay (HEK-Blue cells, secreted embryonic alkaline phosphatase reporter)
Type: cell-based
Note on units: pIC50 is unitless, being -log10 of a concentration expressed in mol/L.

Example entries begin here.
>>> print(df.to_string())
                                   compound  data_value
0  Cn1c(-c2ccc(S(C)(=O)=O)cc2)nc2cc(F)c(C3CCN(C4CC5CCC(C4)N5C4CCC4)CC3)cc21 (stereo not drawn) [Example 232]        7.35
1  Cn1c(-c2ccc(S(C)(=O)=O)cc2)nc2cc(F)c(C3CCN(C4CCN(C5CCOCC5)CC4)CC3)cc21        6.05

// below: pIC50 requested for another compound
Could you tell me which pIC50 is on file for Cn1c(-c2ccc(S(C)(=O)=O)cc2)nc2cc(C3CCN(C4CC5CCC(C4)N5CC4CC4)CC3)c(F)cc21 (single isomer, unassigned) [Example 250] ?
6.96

====

Entries and their pIC50
target: human TLR8 (Homo sapiens)
Sequence (Q9NR97 27-1041): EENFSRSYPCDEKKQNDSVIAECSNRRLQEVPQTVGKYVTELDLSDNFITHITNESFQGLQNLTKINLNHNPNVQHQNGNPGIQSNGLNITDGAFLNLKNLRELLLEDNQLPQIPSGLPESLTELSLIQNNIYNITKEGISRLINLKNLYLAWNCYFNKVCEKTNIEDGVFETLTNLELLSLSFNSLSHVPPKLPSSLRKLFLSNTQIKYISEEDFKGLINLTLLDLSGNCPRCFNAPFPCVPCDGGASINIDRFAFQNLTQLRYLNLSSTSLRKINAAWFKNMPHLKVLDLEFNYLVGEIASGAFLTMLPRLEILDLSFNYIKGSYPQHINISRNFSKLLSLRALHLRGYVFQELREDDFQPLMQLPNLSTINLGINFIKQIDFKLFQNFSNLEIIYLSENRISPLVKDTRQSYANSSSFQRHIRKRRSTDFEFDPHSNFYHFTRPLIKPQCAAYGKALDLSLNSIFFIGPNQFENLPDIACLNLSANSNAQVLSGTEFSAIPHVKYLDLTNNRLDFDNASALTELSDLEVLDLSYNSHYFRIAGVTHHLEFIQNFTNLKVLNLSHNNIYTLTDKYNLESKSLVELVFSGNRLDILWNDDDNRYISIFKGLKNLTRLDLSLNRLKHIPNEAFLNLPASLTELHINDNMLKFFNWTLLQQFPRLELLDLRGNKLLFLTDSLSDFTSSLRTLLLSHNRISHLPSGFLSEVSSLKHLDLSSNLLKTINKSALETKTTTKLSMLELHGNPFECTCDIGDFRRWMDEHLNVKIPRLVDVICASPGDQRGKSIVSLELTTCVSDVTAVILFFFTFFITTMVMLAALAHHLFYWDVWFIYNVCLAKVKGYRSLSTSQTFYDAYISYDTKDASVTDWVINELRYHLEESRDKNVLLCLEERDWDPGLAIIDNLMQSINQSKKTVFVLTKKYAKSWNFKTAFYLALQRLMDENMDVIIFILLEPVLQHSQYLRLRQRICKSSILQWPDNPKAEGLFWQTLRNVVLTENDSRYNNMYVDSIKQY
protocol summary: TLR8 inhibition reporter assay (HEK-Blue cells, secreted embryonic alkaline phosphatase reporter)
protocol conditions: HEK-Blue cells overexpressing human TLR8, stimulated with R848 15.9 μM; read-out: TLR 8 IC50
pIC50: −log10 of the molar value.

Example entries begin here.
>>> df
                                   molecule  reported_property  data_value
0  COCCN1C2CCC1CC(N1CCC(c3cc4c(cc3F)nc(-c3ccc(S(C)(=O)=O)cc3)n4C)CC1)C2 (single isomer, unassigned) [Example 239]              pIC50      < 4.30
1  Cn1c(-c2ccc(S(C)(=O)=O)cc2)nc2cc(C3CCN(C4CC5CCC(C4)N5C4COC4)CC3)cc(F)c21 (single isomer, unassigned) [Example 213]              pIC50      < 4.30
2  COCCN1C2CCC1CC(N1CCC(c3ccc4c(nc(-c5ccc(S(C)(=O)=O)cc5)n4C)c3F)CC1)C2 (single isomer, unassigned) [Example 200]              pIC50      < 4.30
3  Cc1cc(-c2ccc(CN3CC4(CN(C)C4)C3)cc2)cc2c1nc(-c1ccc(S(C)(=O)=O)cc1)n2C              pIC50        5.35
4  Cn1c(-c2ccc(S(C)(=O)=O)cc2)nc2ccc(C3CCN(C4CCCN(C5CCOCC5)CC4)CC3)c(F)c21 (stereo not shown)              pIC50        4.78

// below: pIC50 requested for another molecule
human TLR8 (Homo sapiens) / pIC50 / Cn1c(-c2ccc(S(C)(=O)=O)cc2)nc2cc(C3CCN(C4CC5CCC(C4)N5C4COC4)CC3)c(F)cc21 (single isomer, unassigned) [Example 254] : value?
< 4.30
